# study.target: DYRK4 (human) (UniProt Q9NR20)
# Sequence (Q9NR20 whole entry, looked up): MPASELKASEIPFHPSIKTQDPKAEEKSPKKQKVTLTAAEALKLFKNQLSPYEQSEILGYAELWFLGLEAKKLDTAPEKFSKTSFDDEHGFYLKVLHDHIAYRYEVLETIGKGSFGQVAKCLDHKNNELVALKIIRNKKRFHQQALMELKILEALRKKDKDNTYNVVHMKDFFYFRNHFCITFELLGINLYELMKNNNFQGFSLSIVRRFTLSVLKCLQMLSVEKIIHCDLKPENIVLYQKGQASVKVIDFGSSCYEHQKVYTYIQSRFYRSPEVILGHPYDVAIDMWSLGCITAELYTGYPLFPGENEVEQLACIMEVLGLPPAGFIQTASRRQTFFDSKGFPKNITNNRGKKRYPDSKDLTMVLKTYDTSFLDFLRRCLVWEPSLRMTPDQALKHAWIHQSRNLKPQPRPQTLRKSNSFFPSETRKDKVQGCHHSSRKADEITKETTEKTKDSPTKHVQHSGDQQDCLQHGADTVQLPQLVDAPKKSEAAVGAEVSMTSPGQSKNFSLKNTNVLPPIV
# test.name: radiometric filter-binding kinase assay, Kinase HotSpot
# cond: compound 0.5 µM; ATP 10 µM
measurement.kind: residual activity (%)
Report the value in % with no unit label.

What is its residual activity for DYRK4 (human) (UniProt Q9NR20)? Entry: Nc1n[nH]c2nnc(-c3c(-c4ccccc4)nn4ccccc34)cc12
95.3

What is its residual activity for DYRK4 (human) (UniProt Q9NR20)? Entry: CS(=O)c1ccc(-c2nc(-c3ccc(F)cc3)c(-c3ccncc3)[nH]2)cc1 (stereo unspecified)
99.2

What is its residual activity for DYRK4 (human) (UniProt Q9NR20)? Entry: CCCNC(=O)Nc1ccc(Oc2ncnc3cc(OC)c(OC)cc23)cc1Cl
106

What is its residual activity for DYRK4 (human) (UniProt Q9NR20)? Entry: Cc1ccc(NC(=O)c2ccc(CN3CCN(C)CC3)cc2)cc1Nc1nc(-c2cccnc2)cs1
100

What is its residual activity for DYRK4 (human) (UniProt Q9NR20)? Entry: O=C1Cc2c([nH]c3ccc([N+](=O)[O-])cc23)-c2ccccc2N1
106

What is its residual activity for DYRK4 (human) (UniProt Q9NR20)? Entry: NC(=O)c1ccc(N(C(N)=O)c2c(F)cccc2F)nc1-c1ccc(F)cc1F
96.3

What is its residual activity for DYRK4 (human) (UniProt Q9NR20)? Entry: Clc1ccc(Nc2nnc(Cc3ccncc3)c3ccccc23)cc1
97.5

What is its residual activity for DYRK4 (human) (UniProt Q9NR20)? Entry: CC(C)n1cnc2c(Nc3cccc(Cl)c3)nc(NCCO)nc21
91.2

What is its residual activity for DYRK4 (human) (UniProt Q9NR20)? Entry: O=c1cc(-c2cccc3c2Sc2ccccc2S3)oc(N2CCOCC2)c1
105

What is its residual activity for DYRK4 (human) (UniProt Q9NR20)? Entry: O=c1cc(N2CCNCC2)oc2c(-c3ccccc3)cccc12
94.7

What is its residual activity for DYRK4 (human) (UniProt Q9NR20)? Entry: Oc1ccc(-c2nc(-c3ccc(F)cc3)c(-c3ccncc3)[nH]2)cc1
101

What is its residual activity for DYRK4 (human) (UniProt Q9NR20)? Entry: Nc1nc(Nc2ccc(S(N)(=O)=O)cc2)nn1C(=S)Nc1c(F)cccc1F
96.5

What is its residual activity for DYRK4 (human) (UniProt Q9NR20)? Entry: O=C(Nc1ccc(Cl)cc1)c1ccccc1NCc1ccncc1
104

What is its residual activity for DYRK4 (human) (UniProt Q9NR20)? Entry: CSc1nc(-c2ccc(F)cc2)c(-c2ccnc(NC(C)c3ccccc3)c2)[nH]1 (stereo unspecified)
91.4

What is its residual activity for DYRK4 (human) (UniProt Q9NR20)? Entry: COc1cc2nccc(Oc3ccc(NC(=S)NC(=O)c4ccccc4C)cc3)c2cc1OC
92.7

What is its residual activity for DYRK4 (human) (UniProt Q9NR20)? Entry: C#Cc1cccc(Nc2ncnc3cc(OCCOC)c(OCCOC)cc23)c1
101

What is its residual activity for DYRK4 (human) (UniProt Q9NR20)? Entry: CCN1/C(=C/C(C)=O)Sc2ccc(OC)cc21
82.3

What is its residual activity for DYRK4 (human) (UniProt Q9NR20)? Entry: COc1cc2ncnc(Nc3ccc(F)c(Cl)c3)c2cc1OCCCN1CCOCC1
105

What is its residual activity for DYRK4 (human) (UniProt Q9NR20)? Entry: O=C1Nc2cc(Br)ccc2/C1=C1/Nc2ccccc2/C1=N\O
99.4

What is its residual activity for DYRK4 (human) (UniProt Q9NR20)? Entry: Cc1cc2ncc(-c3ccccc3)nc2cc1C
90.3

What is its residual activity for DYRK4 (human) (UniProt Q9NR20)? Entry: O=C(NC(NC(=S)Nc1ccc(F)c([N+](=O)[O-])c1)C(Cl)(Cl)Cl)C(c1ccccc1)c1ccccc1 (stereo unspecified)
104

What is its residual activity for DYRK4 (human) (UniProt Q9NR20)? Entry: CC(C)(C)c1nc2c3ccc(F)cc3c3c(=O)[nH]ccc3c2[nH]1
104

What is its residual activity for DYRK4 (human) (UniProt Q9NR20)? Entry: CC(C)[C@H](CO)Nc1nc(Nc2cccc(Cl)c2)c2ncn(C(C)C)c2n1
91.2

What is its residual activity for DYRK4 (human) (UniProt Q9NR20)? Entry: O=C1Nc2ccccc2/C1=C\c1c(Cl)[nH]c2ccccc12
97.4

What is its residual activity for DYRK4 (human) (UniProt Q9NR20)? Entry: Nc1nc(Nc2ccc(S(N)(=O)=O)cc2)nn1C(=O)c1c(F)cccc1F
105

What is its residual activity for DYRK4 (human) (UniProt Q9NR20)? Entry: COc1ccc(-c2cnc3c(-c4ccsc4)cnn3c2)cc1
129
